Tested on: HL-60
test_name: NCI tumour cell line growth inhibition, 48 h
Active and inactive are the calls of the source. Rule as the data show it: active = GI50 up to about 1.1 µM and inactive = higher.
Recorded GI50 by entry

CC1(CC2=C(C(=O)NCCO[Si](C)(C)C(C)(C)C)C3(OCCO3)C2=O)OCCO1: 29.1 µM (inactive)
NC(=S)NN=Cc1ccccc1OCc1cccc(COc2ccccc2C=NNC(N)=S)n1: > 100 µM (inactive)
COc1ccc(COCC[C@H](C)OC2OC(CO)C(O)C(O)C2O)cc1 (stereo not given in full): > 100 µM (inactive)
COc1cc(N(CCC#N)CCC#N)ccc1C(/N=N/c1cccc(C)c1)=N\NC(=O)c1ccc(C)cc1: 47.3 µM (inactive)
COc1ccc(-c2nc(N)c3ncn(C4OC(CO)C(O)C4O)c3n2)cc1 (stereo not given): > 100 µM (inactive)

Q: What reported GI50 corresponds to `CCOC(=O)C(=O)Nc1c(C)cccc1C(C)C` on HL-60?
A: > 100 µM (inactive)

Q: Further, for CC1=NN(C(=O)CC(=O)Nc2ccccc2C)C(=O)C1/N=N/c1ccc(C(=O)O)cc1 (stereo not given) ?
A: > 100 µM (inactive)

Q: Further, for `C=CCOc1ccc(C(=N/NC(=O)c2ccccc2)/N=N/c2ccccc2)cc1OC` ?
A: 37.8 µM (inactive)

Q: Further, for CCOC1C=CCCO1 (stereo not given) ?
A: > 100 µM (inactive)

Q: Further, for CCCOC(=O)C1C(c2ccc(OC)cc2)NC(c2ccc(OC)cc2)C(C(=O)OCCC)S1(=O)=O (stereo not given) ?
A: > 100 µM (inactive)

Q: Further, for Nc1nc2c(ncn2C2OC(CO)C(O)C2N)c(=O)[nH]1 (stereo not given) ?
A: 97.9 µM (inactive)

Q: Further, for `COc1cc2c(cc1OCCCC(=O)Nc1cc(C(=O)Nc3cc(C(=O)Nc4cc(C(=O)NCCCN(C)C)n(C)c4)n(C)c3)n(C)c1)N=C[C@@H]1CCCN1C2=O` ?
A: 1.16 µM (inactive)

Q: Further, for `Cc1ccc(Cc2n[nH]c(=O)n2/N=C\CC/C=N\n2c(Cc3ccc(C)cc3)n[nH]c2=O)cc1` ?
A: 14.6 µM (inactive)

Q: Further, for `Brc1ccc(/C=N/C23CC4CC(CC(C4)C2)C3)cc1` ?
A: > 100 µM (inactive)

Q: Further, for `CCN(CC)c1ccc(/N=C2/C=CC(=C(C#N)C#N)c3ccccc32)c(C)c1` ?
A: 1.26 µM (inactive)

---

Tested on: K562
test_name: NCI tumour cell line growth inhibition, 48 h
Activity calls are given as the source filed them. Rule as the data show it: active = GI50 up to about 1.1 µM and inactive = higher.
observed_property: GI50

Some entries whose results are on file:
CSc1nc(-c2ccccc2)nc(N2CCOCC2)[s+]1: 37.6 µM (inactive)
C=CCOc1ccc2c(C)cc(=O)oc2c1C: 52.5 µM (inactive)
C=CCN(N=O)C(=O)N(CCC)CCCC(NC(C)=O)C(=O)NCc1ccccc1 (stereo unspecified): > 100 µM (inactive)
O=C1C=CC2CCC1C2 (stereo unspecified): 27.4 µM (inactive)
O=C(Nc1nc2ncn(CCOC(=O)c3ccccc3)c2c(=O)[nH]1)c1ccccc1: 3.05 µM (inactive)

Q: For the compound `CN(C)c1ccc(N2C(=S)SC(=N\c3ccccc3)/C2=N/c2ccccc2)cc1` , what GI50 is on record?
A: > 100 µM (inactive)

---

Test system: LOX IMVI
test_name: NCI tumour cell line growth inhibition, 48 h
The source made the active and inactive calls. Rule as the data show it: active = GI50 up to about 1.1 µM and inactive = higher.
Recorded GI50 by entry

Some entries whose results are on file:
N#CC1CCN2N=C(c3ccccc3)SC12c1ccccc1 (stereo not given): 51.9 µM (inactive)
COc1ccc(-c2c(CN3CCOCC3)sc3nc4ccccc4n23)cc1: 18.5 µM (inactive)
CC1(C)OC(COCCOCCCCCO)C(COCCOCCCCCO)O1 (stereo not given): > 100 µM (inactive)
C[N+](C)(C)CCOP(=O)(O)OP(=O)([O-])OCC1CCC(n2ccc(N)nc2=O)O1 (stereo not given): > 100 µM (inactive)
CC(=O)c1sc2c(c1OC(=O)c1cccs1)c(=O)n(-c1ccccc1)c(=S)n2-c1ccccc1: 4.84 µM (inactive)

As a next step, examine the compound that follows.
Q: For the compound O=C(Nc1nc2ccc([N+](=O)[O-])cc2s1)C(=O)C(C(=O)c1ccccc1F)C1OC(=O)c2ccccc21 (stereo not given) , what GI50 is on record?
A: 27 µM (inactive)

---

Recorded GI50 by entry
System: HCC 2998
test_name: NCI tumour cell line growth inhibition, 48 h
Calls of active or inactive are those of the source. Rule as the data show it: active = GI50 up to about 1.1 µM and inactive = higher.

Some entries whose results are on file:
COc1nc2ccc(CNc3ccc(C(=O)O)cc3)cc2nc1OC: > 10 µM (inactive)
O=C(CCC(=O)c1ccc(Cl)cc1)NO: > 100 µM (inactive)
COc1ccc(-n2c(C)nc3ccc(NC4OCC(OC(C)=O)C(OC(C)=O)C4OC(C)=O)cc3c2=O)cc1 (stereo not given): 97.1 µM (inactive)

Q: For the compound COC1=C(Br)[C@H](O)[C@@]2(C=C1Br)CC(C(=O)NCCCCCNC(=N)N)=NO2 [APLYSINAMISINE II] , what GI50 is on record?
A: > 10 µM (inactive)

Q: Further, for CC(=O)OC12CC(C)C3(O)C4C=C(C)C(=O)[C@@]4(O)CC(CO)=C[C@H]3C1C2(C)C (stereo not given in full) ?
A: 4.21 µM (inactive)

---

Test system: HOP-62
test_name: NCI tumour cell line growth inhibition, 48 h
Calls of active or inactive are those of the source. No stated cut-off is given here; in the data, active = GI50 up to about 1.1 µM and inactive = higher.
observed_property: GI50

C=CCN(N=O)C(=O)N(CCCC(NC(C)=O)C(=O)NCc1ccccc1)Cc1ccccc1 (configuration not stated): > 100 µM (inactive)
O=C(/C(=C\c1ccccc1)CN1CCOCC1)c1ccc(Br)cc1: 6.27 µM (inactive)
COc1ccc(C2c3cc4c(cc3OC(O)(CO)C2C(=O)O)OCO4)c(OC)c1OC.COc1ccc(C2c3cc4c(cc3OC3(O)COC(=O)C23)OCO4)c(OC)c1OC (configuration not stated): > 100 µM (inactive)

Q: What reported GI50 corresponds to COC(=O)/C(=N\NC(N)=O)C(C(=O)C=C(C)C)C(=O)C(=O)Nc1ccc(Cl)c(Cl)c1 (configuration not stated) on HOP-62?
A: > 100 µM (inactive)

Q: Further, for `O=[N+]([O-])c1ccc(/N=N/c2c(O)ccc3cc(S(=O)(=O)O)cc(S(=O)(=O)O)c23)cc1` ?
A: > 100 µM (inactive)

Q: Further, for CCOC(=O)C1=C(C(=O)OCC)C2c3ccccc3C=CN2C(C(=O)OCC)=C(SC)S1 (configuration not stated) ?
A: > 100 µM (inactive)

Q: Further, for `CCOC(=O)N1CCN(c2c(N)nc(C)nc2O)CC1` ?
A: > 100 µM (inactive)

Q: Further, for COC1=CC(=O)C=C(OC)C1=O [2,6-DIMETHOXYQUINONE] ?
A: 25.3 µM (inactive)

Q: Further, for `CCOC(=O)c1c2c(n(-c3ccc(C)cc3)c1C)-c1ccccc1C(=O)C2(C(=O)OCC)C(=O)OCC` ?
A: 78.7 µM (inactive)

---

Tested on: RPMI-8226
test_name: NCI tumour cell line growth inhibition, 48 h
Activity calls are given as the source filed them. No stated cut-off is given here; in the data, active = GI50 up to about 1.1 µM and inactive = higher.
Valid outcomes are listed here; reply with one: active, inactive

Illustrative cases are given below, each with its answer.
O=C1C(c2ccc(Br)cc2)=[N+]([O-])c2ccccc21: inactive
CC(=O)C1=C(C)Cn2c(=O)c3ccccc3c(=O)n2C1: inactive
CN(C)C(=S)SCC(=O)Nc1ccccc1: inactive
COc1ccc(CCN2CCC(C#N)(c3ccc(OC)c(OC)c3)CC2)cc1OC: inactive
O=c1c(-c2ccccc2)c(SCCO)n(-c2ccccc2)c(=S)n1-c1ccccc1: inactive
CCOC(=O)C(NC(=O)Nc1ccccc1)(Nc1cccc(Cl)c1)C(F)(F)F (centres undefined): inactive
O=[N+]([O-])c1ccc(/N=N/c2c(O)ccc3cc(S(=O)(=O)O)cc(S(=O)(=O)O)c23)cc1: inactive
COc1ccc([C@]23CCC4(OCC(C)(C)CO4)[C@H]4CON(O[C@H](O[C@@H]5CCCCC5C(C)(C)c5ccccc5)C2)[C@@H]43)cc1OC (some centres undefined): inactive
CC(=O)N1CC[N+](C)(CCCCN2c3ccccc3Sc3cc(N=[N+]=[N-])ccc32)CC1: inactive
CCOC(=O)c1c2c(n(-c3ccc(C)cc3)c1C)-c1ccccc1C(=O)C2(C(=O)OCC)C(=O)OCC: inactive

Q: Which result was noted for this molecule in the test: `COc1ccc(/C=C/C(=O)CC(=O)/C=C/c2ccc(OC)cc2)cc1`
A: inactive

Q: Further, for `O=C(O)c1ccc(P(=O)(O)c2ccc(C(=O)O)cc2Br)c(Br)c1` ?
A: inactive

Q: Further, for COc1ccc2nc3ccc(OC)cc3c([S+]([O-])CCCl)c2c1 (centres undefined) ?
A: inactive

The reported measurements were obtained from ChEMBL document CHEMBL1201862.
